Provenance of the data: the RNAGym collection of RNA variant scans (doi:10.7554/elife.80360)

B1: Twister Ribozyme (parent)
chain: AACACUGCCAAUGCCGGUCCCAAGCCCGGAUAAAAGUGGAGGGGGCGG

# Variants of: B1
# assay_info: self-cleavage, relative activity (ratio to wild type); higher = more cleavage; co-transcriptional
readout_label: self-cleavage
Output: the number by itself.

variant AAGACUGCCAAUGCCGGUCCCAAGCCCGGAUAAAAGUGGAGGGGGCCG [C3G G47C] , self-cleavage observed: 0.149

variant AACACUGCCAAUGCCGGUCCCAAGCCCGGAUAACAGUGGAGGGUGCGG [A34C G44U] , self-cleavage observed: 0.165

variant AACACUGCCAAUGCCGGUCCCAAGGCCGGAUAAAAGUGGAGGGGGUGG [C25G C46U] , self-cleavage observed: 0.286

variant AACACUGCCAAUGCCGGUCCCAAGUCCAGAUAAAAGUGGAGGGGGCGG [C25U G28A] , self-cleavage observed: 0.713

variant AACACUGUCAAUGCCGGUCCCAAGCCCGGAUCAAAGUGGAGGGGGCGG [C8U A32C] , self-cleavage observed: 0.733

variant AACACUGCCAAUGCAGGUCCCAAGGCCGGAUAAAAGUGGAGGGGGCGG [C15A C25G] , self-cleavage observed: 0.192

variant AAAACUGCCAAUGCCGCUCCCAAGCCCGGAUAAAAGUGGAGGGGGCGG [C3A G17C] , self-cleavage observed: 0.0654

variant AACACUGCCAAUGCCGGUCCCACACCCGGAUAAAAGUGGAGGGGGCGG [A23C G24A] , self-cleavage observed: 0.107

variant AACACUGCCAGUGCCGGUCCCAAGCCCGGAUAAAAGUGGACGGGGCGG [A11G G41C] , self-cleavage observed: 0.313

variant AACACUGCCAAUGCCGGUCUCAAGCCCGGAUAAAAGCGGAGGGGGCGG [C20U U37C] , self-cleavage observed: 0.192

variant AACACUGCCAAUGCCGGUCCCAAACCCGGAUAAAAGUGGAGGGUGCGG [G24A G44U] , self-cleavage observed: 0.0885

variant AACACUGCCAAUGCCGGUCACAAGCCCGGAUAAAAGUGGAGGGGUCGG [C20A G45U] , self-cleavage observed: 0.17

variant AACACUGCUAAUGCCGGUUCCAAGCCCGGAUAAAAGUGGAGGGGGCGG [C9U C19U] , self-cleavage observed: 0.226

variant AACACUGCCAAUGCCGGUCCCAAGCCCGGAUAAAAGUGGAGGGAGGGG [G44A C46G] , self-cleavage observed: 0.895

variant AACACUGCCAAUGCCGGUCCCAAUCCCGGAUAAAAGUGGAGGGGGCGC [G24U G48C] , self-cleavage observed: 0.127

variant AACGCUGCCAAUGCCGGUCCCAAGACCGGAUAAAAGUGGAGGGGGCGG [A4G C25A] , self-cleavage observed: 0.054

variant AACACUGCCAAUGCCGGUUCCAAGCCCGGAUAAAAGUGGAGGUGGCGG [C19U G43U] , self-cleavage observed: 1.02

variant AACACUGCCAAUGCCGGUCCAAAGCCCGGAUAAAAGUGGCGGGGGCGG [C21A A40C] , self-cleavage observed: 0.0907

variant AACACUGCGAAUGCAGGUCCCAAGCCCGGAUAAAAGUGGAGGGGGCGG [C9G C15A] , self-cleavage observed: 0.278

variant GACACUGCCAAUGCCGGUCCCAAGCCAGGAUAAAAGUGGAGGGGGCGG [A1G C27A] , self-cleavage observed: 0.189

variant CAUACUGCCAAUGCCGGUCCCAAGCCCGGAUAAAAGUGGAGGGGGCGG [A1C C3U] , self-cleavage observed: 0.208

variant AACACUGCCAUUGCCGGUCCCAAGCCCGGAUAAAAGUGGAGAGGGCGG [A11U G42A] , self-cleavage observed: 0.557

variant AACACUGCCAAUGGCGGUCCCAAGCCCGGAUAAGAGUGGAGGGGGCGG [C14G A34G] , self-cleavage observed: 0.182

variant AACACUGCCAAUGCCGAUCCCAAGCCCGGAUAAAAGUGGAGCGGGCGG [G17A G42C] , self-cleavage observed: 0.192

variant AACAGUGCCAAUGCCGGUCCCAAGCCCGGAUAAAAGCGGAGGGGGCGG [C5G U37C] , self-cleavage observed: 0.14

variant AACACUGCCAAUGCCGGUCCCAUGCCCGGAUAAAAGUUGAGGGGGCGG [A23U G38U] , self-cleavage observed: 0.236

variant AACACUGCCAAUGCCGGUCCCAAGCCCGGAUAAAAGUCGAGUGGGCGG [G38C G42U] , self-cleavage observed: 0.183

variant AACACUGCCAAUGCCGGUCCCAGGCCGGGAUAAAAGUGGAGGGGGCGG [A23G C27G] , self-cleavage observed: 0.0997

variant AACACUGCCAAUGCGGGUCCCAAGCCCGGAUAAUAGUGGAGGGGGCGG [C15G A34U] , self-cleavage observed: 0.109

variant AACACUGCCAAUGCCGGACCCAAGCCCGGAUACAAGUGGAGGGGGCGG [U18A A33C] , self-cleavage observed: 0.247

variant AACACUGAGAAUGCCGGUCCCAAGCCCGGAUAAAAGUGGAGGGGGCGG [C8A C9G] , self-cleavage observed: 0.122

variant UACACUGCCAAAGCCGGUCCCAAGCCCGGAUAAAAGUGGAGGGGGCGG [A1U U12A] , self-cleavage observed: 0.0685

variant AACACUGCCAAUGCCGGUCCCAAGCCCGGAUAAAAGUGGCGGGAGCGG [A40C G44A] , self-cleavage observed: 0.298

variant AACAUUGCCAAUGCCGGUCCCAAGUCCGGAUAAAAGUGGAGGGGGCGG [C5U C25U] , self-cleavage observed: 0.507

variant AACACUGCCAAUGCCGGUCCCAAGCCCGGAUAAAAGUGGGGUGGGCGG [A40G G42U] , self-cleavage observed: 0.172

variant AACACUGCAAAUGCCGGUCCCAAGCCCGUAUAAAAGUGGAGGGGGCGG [C9A G29U] , self-cleavage observed: 0.686

variant AACACUGACAAUGCCGGUCCCAAGACCGGAUAAAAGUGGAGGGGGCGG [C8A C25A] , self-cleavage observed: 0.0389

variant AACACUGUCAAUGCCGGUCCCAAGCCCGGAUAAAAGUGGGGGGGGCGG [C8U A40G] , self-cleavage observed: 0.172

variant AACACUGCCAAUGCCGGUCCCAAGCCAGGAUAAAAGUGUAGGGGGCGG [C27A G39U] , self-cleavage observed: 0.0773

variant AACACUGCCAAUGCCGUUCCCAAGCCCGGAUAAAAGUGGAGGGAGCGG [G17U G44A] , self-cleavage observed: 0.219

variant AACACUGCCAAUGACGGUCCCAAGCCCGGAUAAAAGUGAAGGGGGCGG [C14A G39A] , self-cleavage observed: 0.409

variant AACACUGCCAAUGCCGGUCCCAUGCCCGGAUAAAAGUGAAGGGGGCGG [A23U G39A] , self-cleavage observed: 0.061

variant AACACUGACAAUGCCGGUCCCAAGCCCGGAUAAAAGUGGACGGGGCGG [C8A G41C] , self-cleavage observed: 0.124

variant AACACGGCCAAUGCCGGUCCCAAGCCCGGAUAAAAGCGGAGGGGGCGG [U6G U37C] , self-cleavage observed: 0.159

variant AACACUGCCAAUGCCGGGCCCAAGCCCGCAUAAAAGUGGAGGGGGCGG [U18G G29C] , self-cleavage observed: 0.0613

variant AACACUGCCAAUGCCCGUCCCAAGCCCGGAUAAAAGUGGAGGGUGCGG [G16C G44U] , self-cleavage observed: 0.81

variant AACACUGCCAAUGCCGGUCCCAUGCCCGGAUAAAAGUGGAGGAGGCGG [A23U G43A] , self-cleavage observed: 0.118

variant AACACUGCCAAUGCCGGUCCCAAGCCCGGAUAGAAGUGGAGGCGGCGG [A33G G43C] , self-cleavage observed: 0.144

variant AACACUGCCAAUGCCGGUCACAAGCCCGGAUAAAAGUGCAGGGGGCGG [C20A G39C] , self-cleavage observed: 0.0811

variant AACACUGCCAAUUCCGGUCCCACGCCCGGAUAAAAGUGGAGGGGGCGG [G13U A23C] , self-cleavage observed: 0.0557

variant AACACUGCCUAUGCCGGUCCUAAGCCCGGAUAAAAGUGGAGGGGGCGG [A10U C21U] , self-cleavage observed: 0.0991

variant AACACUGUCAAUGCCGGUCCCAAGCCCGGAUAAAAGUGGAGGGGGCGU [C8U G48U] , self-cleavage observed: 0.678

variant AACACUGCCAAUGCCGGUCCCAAGCCCGGAUAAAUGUGGAGGGAGCGG [A35U G44A] , self-cleavage observed: 0.843

variant AACACUGCCAUUGCCGGUCCCAAGCCCGGAUAAAAGUCGAGGGGGCGG [A11U G38C] , self-cleavage observed: 1.08

variant AACACUGCCAAUGCCGGUCCCAAGCCCGUAUAAAAGUGGAGGGGGCGU [G29U G48U] , self-cleavage observed: 0.867

variant AACACUGUCAAUGCCGGUCCCAAGGCCGGAUAAAAGUGGAGGGGGCGG [C8U C25G] , self-cleavage observed: 0.1

variant AACACUGCCCAUGCCGGUCCCAAGCCCGGAUAAAAGUGGAGUGGGCGG [A10C G42U] , self-cleavage observed: 0.26

variant AACACUGCCAAUGCCGGUCCCAAGCCCGGAUAAAAGUAGAUGGGGCGG [G38A G41U] , self-cleavage observed: 0.315

variant AACACUGCCAAUGCCGGUCCCAAGCCCGGAUAAAAGUGCAGGGGACGG [G39C G45A] , self-cleavage observed: 0.12

variant AACACUGCCAAUGACGGUCCCAAGCCAGGAUAAAAGUGGAGGGGGCGG [C14A C27A] , self-cleavage observed: 0.31

variant AACACUGCCAAUGCCGGUCCCAAGCCCGCAUAAAAGUGGAGGGGACGG [G29C G45A] , self-cleavage observed: 0.667

variant AACACUUCCAAUGCCGGUCCCAAGCCCGGAUAAUAGUGGAGGGGGCGG [G7U A34U] , self-cleavage observed: 0.0892

variant GACACUGCCAAUGCCGGUCCCAAGCCCGCAUAAAAGUGGAGGGGGCGG [A1G G29C] , self-cleavage observed: 0.29

variant AACACUGCCGAUGCCGGUCCCAAGCCCGGAUAAAAGUGGAGGGGGUGG [A10G C46U] , self-cleavage observed: 1.02

variant GACACUGCCAAUGCCGGUCCCAAACCCGGAUAAAAGUGGAGGGGGCGG [A1G G24A] , self-cleavage observed: 0.144

variant AACACUACCAAUGCCGGUCCCAAGCCCGGAUAAAACUGGAGGGGGCGG [G7A G36C] , self-cleavage observed: 0.113

variant AACACUGCCAAUGCCGGUCCCAAGCUGGGAUAAAAGUGGAGGGGGCGG [C26U C27G] , self-cleavage observed: 0.0958

variant AACCCUGCCAAUGCCGGUCCCAAGCCCGGAUUAAAGUGGAGGGGGCGG [A4C A32U] , self-cleavage observed: 0.159

variant AACACUGACAAUGCCGGUCCCAAGCCCGGAUAAAAGUGGAGGGGCCGG [C8A G45C] , self-cleavage observed: 0.141

variant AACACUGCUAAUGCCGGUCCCAAGCCCGGAUAAAAGUGGAGGAGGCGG [C9U G43A] , self-cleavage observed: 0.137

variant GACACUGCCAAUGACGGUCCCAAGCCCGGAUAAAAGUGGAGGGGGCGG [A1G C14A] , self-cleavage observed: 0.467

variant AACACUGCCAAUGCCGAUCCCAAGCCCGGAUAAAAUUGGAGGGGGCGG [G17A G36U] , self-cleavage observed: 0.108

variant AACACAACCAAUGCCGGUCCCAAGCCCGGAUAAAAGUGGAGGGGGCGG [U6A G7A] , self-cleavage observed: 0.224

variant AACGCUGCCAAUGCCGGUCCGAAGCCCGGAUAAAAGUGGAGGGGGCGG [A4G C21G] , self-cleavage observed: 0.0683

variant AACACUGCCAAGGCCGCUCCCAAGCCCGGAUAAAAGUGGAGGGGGCGG [U12G G17C] , self-cleavage observed: 0.0934

variant AAAACUGCCAAUGCCUGUCCCAAGCCCGGAUAAAAGUGGAGGGGGCGG [C3A G16U] , self-cleavage observed: 0.141

variant AACACUGCCAAUGCCGGUCCCAAGCCCGGAUAGAAGUGGAGGGGGCGG [A33G] , self-cleavage observed: 0.96

variant AACACUGCGAAUGCCGGUUCCAAGCCCGGAUAAAAGUGGAGGGGGCGG [C9G C19U] , self-cleavage observed: 0.144

variant AACACUGCCAAUGCCGGUCCCAAGCCCGGAAAAAAGUGGAGGGGGGGG [U31A C46G] , self-cleavage observed: 0.763

variant AACACUGCCAAUGCCGGUCCCAAGUCCGGUUAAAAGUGGAGGGGGCGG [C25U A30U] , self-cleavage observed: 0.932

variant AACACUGCCAAUGCCGGUCGCAAGCCCGGAUAAAAAUGGAGGGGGCGG [C20G G36A] , self-cleavage observed: 0.0839

variant AACACUGCCUAUGCCGGUCCCAAGCCCGCAUAAAAGUGGAGGGGGCGG [A10U G29C] , self-cleavage observed: 0.617

variant AACACUGCCAAUGGCGGUCCCAAGCCCGGAUAAAAGUGAAGGGGGCGG [C14G G39A] , self-cleavage observed: 0.0534

variant AACACUGCCAAUGCCGGUCCCAAGCCGGGAUAAAAAUGGAGGGGGCGG [C27G G36A] , self-cleavage observed: 0.0994

variant AACACUGCCAGUGCCGGUCCCAAGCCGGGAUAAAAGUGGAGGGGGCGG [A11G C27G] , self-cleavage observed: 0.0637

variant AACUCUGCCAAUGUCGGUCCCAAGCCCGGAUAAAAGUGGAGGGGGCGG [A4U C14U] , self-cleavage observed: 0.13

variant AACACUGCCAAUGCCGGUCCCAAGCCCGGAUAAACGUGGAUGGGGCGG [A35C G41U] , self-cleavage observed: 0.709

variant AACACUGCCAAUGCCGGUCCCAAGCCCGGAUACAAGUGAAGGGGGCGG [A33C G39A] , self-cleavage observed: 0.438

variant AAAACUGCCAAUGCCGGUCCCGAGCCCGGAUAAAAGUGGAGGGGGCGG [C3A A22G] , self-cleavage observed: 0.0923

variant AACACUGCCAAUGCCGGUCCCAGGCCCGGCUAAAAGUGGAGGGGGCGG [A23G A30C] , self-cleavage observed: 0.0761

variant AUGACUGCCAAUGCCGGUCCCAAGCCCGGAUAAAAGUGGAGGGGGCGG [A2U C3G] , self-cleavage observed: 0.113
